Non-standard residues stand in square brackets, D forms with d. Residues, ends and D or L forms follow the SMILES beside them. *: point of attachment. Leu(ol) = CC(C)C[C@H](N)CO; Cbz = O=C(OCc1ccccc1)*
TEST READOUT: melting point

[[record]]
compound = "Cc1cc(C(C)(CC(=O)c2ccccc2)c2ccccc2)ccc1O (stereo not drawn)"
test_readout = "melting point"
recorded_measurement = "137 °C"

[[record]]
compound = "Cc1ccc2sc(-c3ccccc3)c(N(C)C)c2c1"
test_readout = "melting point"
recorded_measurement = "89 to 92 °C"

[[record]]
compound = "CCOC(=O)CN1C(=O)C(NC(=O)OCc2ccccc2)N=C(c2ccccc2)c2ccccc21 (stereo not drawn)"
test_readout = "melting point"
recorded_measurement = "65 to 66 °C"

[[record]]
compound = "N#Cc1ccc(OCCCCCOc2ccc(-c3cc4ccc(C#N)cc4o3)cc2)cc1"
test_readout = "melting point"
recorded_measurement = "165 to 167 °C"

[[record]]
compound = "COC(=O)C1COC(c2ncn3c2CN(C)C(=O)c2c(Cl)cccc2-3)=N1 (stereo not drawn)"
test_readout = "melting point"
recorded_measurement = "216 to 218 °C"

[[record]]
compound = "C[C@H](c1ccccc1)n1c(=O)c2c(Cl)cc(Cl)cc2n(Cc2ccccc2)c1=O"
test_readout = "melting point"
recorded_measurement = "93 to 97 °C"

[[record]]
compound = "Cc1ccc(Cl)cc1NC(=S)Nc1cc[nH]n1"
test_readout = "melting point"
recorded_measurement = "221 to 222 °C"

[[record]]
compound = "O=c1c2ccccc2c(-c2ccccc2)cn1CCCO"
test_readout = "melting point"
recorded_measurement = "84 °C"

[[record]]
compound = "NC(=O)c1cc(COc2ccc([N+](=O)[O-])cc2)ccn1"
test_readout = "melting point"
recorded_measurement = "172 to 174 °C"

[[record]]
compound = "COC(=O)c1cc2c(O)c(C(=O)NCc3ccc(Cl)cc3)cnc2nc1C"
test_readout = "melting point"
recorded_measurement = "265 to 267 °C"

[[record]]
compound = "CCOC(=O)C1=CC(C(=O)c2cc(Br)ccc2O)=CN2CCc3c([nH]c4ccccc34)C12C(=O)OCC (stereo not drawn)"
test_readout = "melting point"
recorded_measurement = "215 °C"

[[record]]
compound = "O=C(O)CCCc1cc2cc(Cl)ccc2n1S(=O)(=O)c1ccc2ccccc2c1"
test_readout = "melting point"
recorded_measurement = "166 °C"

[[record]]
compound = "O=C(Nc1cccc(S(=O)(=O)C(F)(F)F)c1)c1c(O)ccc2ccccc12"
test_readout = "melting point"
recorded_measurement = "179 to 180 °C"

[[record]]
compound = "CCC(C)c1ccc(N(Cc2ccc(C(C)(C)C)cc2)C(=N)N(C)c2ccccc2)cc1 (stereo not drawn)"
test_readout = "melting point"
recorded_measurement = "80 to 82 °C"

[[record]]
compound = "CN(C)c1ncc(CN2C(=O)C3(COc4cc5c(cc43)OCO5)c3ccccc32)s1 (stereo not drawn)"
test_readout = "melting point"
recorded_measurement = "200 to 202 °C"

[[record]]
compound = "O=[N+]([O-])c1ccc(-c2nnsc2-c2ccc([N+](=O)[O-])cc2)cc1"
test_readout = "melting point"
recorded_measurement = "185 to 186 °C"

[[record]]
compound = "Cc1cc(-n2ccnc2)c2cccc(OCc3c(Cl)ccc(S(=O)(=O)N4CCC[C@H]4C(=O)NCc4ccccc4)c3Cl)c2n1"
test_readout = "melting point"
recorded_measurement = "116 °C"

[[record]]
compound = "CCN1c2ncc(CC(OC(C)=O)c3ccncc3)cc2C(=O)N(C)c2ccc(Cl)nc21 (stereo not drawn)"
test_readout = "melting point"
recorded_measurement = "157 to 158 °C"

[[record]]
compound = "N#Cc1c(N2CCCCC2)cc(-c2ccco2)c2c1Cc1ccccc1-2"
test_readout = "melting point"
recorded_measurement = "160 to 162 °C"

[[record]]
compound = "Nc1cc(N2CC(CCc3ccccc3)OC2=O)ccn1 (stereo not drawn)"
test_readout = "melting point"
recorded_measurement = "143 to 144 °C"

[[record]]
compound = "ON=C1CCC(c2ccc(Cl)cc2)c2ccccc21 (stereo not drawn)"
test_readout = "melting point"
recorded_measurement = "150 to 154 °C"

[[record]]
compound = "CN(Cc1ccc(NC(=O)C2=Cc3cc(-c4ccc5c(c4)OCO5)ccc3SCC2)cc1)C1CCOCC1"
test_readout = "melting point"
recorded_measurement = "193 to 194 °C"

[[record]]
compound = "COc1ccc(S(=O)(=O)N(Cc2cccnc2)c2c(C(=O)O)cnc3onc(C)c23)cc1"
test_readout = "melting point"
recorded_measurement = "244 to 246 °C"

[[record]]
compound = "Cc1cccc(C(O)(c2cccc(C)c2)c2cccc(-c3ccc4ccccc4c3)c2)c1"
test_readout = "melting point"
recorded_measurement = "58 to 60 °C"

[[record]]
compound = "Cn1c2ccccc2c2ccc3c(c21)C(=O)OC3=O"
test_readout = "melting point"
recorded_measurement = "> 300 °C"

[[record]]
compound = "CCOC1CC(n2cc(CC)c(=O)[nH]c2=O)OC1CNC(=O)C(C)Oc1ccc(Cl)cc1Cl (mixture of isomers)"
test_readout = "melting point"
recorded_measurement = "121 to 124 °C"

[[record]]
compound = "CN1CCC(c2c[nH]c3ccc(OS(=O)(=O)c4c(F)cccc4F)cc23)CC1"
test_readout = "melting point"
recorded_measurement = "214 to 215 °C"

[[record]]
compound = "CNc1coc2ccccc2c1=S"
test_readout = "melting point"
recorded_measurement = "134 °C"

[[record]]
compound = "CC(=O)SCCC(=O)N1N=C(c2ccc(C(F)(F)F)cc2)SC1C(=O)OCc1ccccc1 (stereo not drawn)"
test_readout = "melting point"
recorded_measurement = "120 to 121 °C"

[[record]]
compound = "COP(=O)(OC)C(O)=Cc1ccc(Cl)cc1"
test_readout = "melting point"
recorded_measurement = "89 to 92 °C"

[[record]]
compound = "CC(C)C[C@@H](CO)NC(=O)[C@H](Cc1c[nH]cn1)NC(=O)[C@H](Cc1ccccc1)NC(=O)OCc1ccccc1 (Cbz-Phe-His-[Leu(ol)])"
test_readout = "melting point"
recorded_measurement = "181 to 183 °C"

[[record]]
compound = "CC(C)OC(=O)NCNCN=O"
test_readout = "melting point"
recorded_measurement = "66 to 67 °C"

[[record]]
compound = "Nc1ccccc1S(=O)(=O)N1CC=CC1"
test_readout = "melting point"
recorded_measurement = "104 to 105 °C"

[[record]]
compound = "Cc1cccc(C(=O)c2ccc(Cl)cc2)c1O"
test_readout = "melting point"
recorded_measurement = "55 to 58 °C"

[[record]]
compound = "O=C(Nc1ccc(N2CCC(NC[C@H](O)COc3cccc4[nH]c(=O)[nH]c34)CC2)cc1)c1ccc2c(c1)OCO2"
test_readout = "melting point"
recorded_measurement = "160 to 169 °C"

[[record]]
compound = "Sc1nc2cccccc-2n1"
test_readout = "melting point"
recorded_measurement = "300 °C"

[[record]]
compound = "COc1cc(OC)c2c(=O)[nH]c(-c3ccc(OCCN4CCCC4)c(C)c3)nc2c1"
test_readout = "melting point"
recorded_measurement = "230 to 231 °C"

[[record]]
compound = "CCc1ccc2c(c1)N(Cc1ccc(-c3ccccc3C#N)cc1)C(=O)CC2(C)C"
test_readout = "melting point"
recorded_measurement = "171 to 172 °C"

